Experiment: Solubility of the crystalline compounds in aqueous media
Type: physicochemical
Details: water; 'above noted insolubilities'; read-out: solubility in water
recordedEndpoint: solubility

**Q:** I am curious: what solubility value has been reported for `Cc1ccccc1-c1cc(N2CCOCC2)ncc1N(C)C(=O)C(C)(C)c1cc(C(F)(F)F)cc(C(F)(F)F)c1` ?
**A:** < 0.1 µg/mL

Source of measurements: patent US8852634B2
